From: paper PMC4257840

# IC50 per entry
- test-system: human liver Cat B (Homo sapiens)
- assay-explanation: Cathepsin B inhibition assay
- test-parameters: read-out: Cat B IC50; mean ± SE

{"columns": ["smiles-data", "test-system", "IC50 [µM]"],
 "data": [
  ["CC(C)[C@H](NC(=O)[C@H](C)NC(=O)[C@@H](NC(=O)c1ccccc1)C(C)(C)C)C(=O)C(=O)NCc1ccccc1", "human liver Cat B (Homo sapiens)", 0.512],
  ["CC(C)[C@H](NC(=O)[C@H](C)NC(=O)[C@H](Cc1ccccc1)NC(=O)c1ccccc1)C(=O)C(=O)NCC(=O)N1CCN(C)CC1", "human liver Cat B (Homo sapiens)", 0.544],
  ["CC(C)[C@H](NC(=O)[C@H](C)NC(=O)[C@H](Cc1ccccc1)NC(=O)c1cccc2ccccc12)C(=O)C(=O)NCC(=O)N1CCN(C)CC1", "human liver Cat B (Homo sapiens)", 0.54]
]}

---

- test-system: human liver Cat B (Homo sapiens)
- assay-explanation: Cathepsin B inhibition assay
- test-parameters: read-out: Cat B IC50; mean ± SE
measured-property: log10 IC50 (log10 of the value in nM)

{"columns": ["compound", "log10 IC50"],
 "data": [
  ["CC(C)[C@H](NC(=O)[C@H](C)NC(=O)[C@@H](NC(=O)c1cccc2ccccc12)C(C)(C)C)C(=O)C(=O)NCc1ccc(S(N)(=O)=O)cc1", 2.73],
  ["CC(C)[C@H](NC(=O)[C@H](C)NC(=O)[C@@H](N1Cc2ccccc2C1=O)C(C)(C)C)C(=O)C(=O)NCc1ccc(CN(C)C)cc1", 3.45],
  ["CNC(=O)c1ccc(CNC(=O)C(=O)[C@@H](NC(=O)[C@H](C)NC(=O)[C@@H](N2Cc3ccccc3C2=O)C(C)(C)C)C(C)C)cc1", 3.55],
  ["CC(C)[C@H](NC(=O)[C@H](C)NC(=O)[C@@H](NC(=O)c1ccccc1)C(C)(C)C)C(=O)C(=O)NCc1ccc(S(N)(=O)=O)cc1", 2.99],
  ["CC(C)C(NC(=O)[C@H](C)NC(=O)[C@H](Cc1ccccc1)NC(=O)c1ccccc1)C(=O)C(=O)NC1CCCCC1 (mixture of isomers)", 1.72]
]}

---

- test-system: human recombinant procathepsin K (activated) (Homo sapiens, UniProt P43235)
- Sequence (P43235 115-329): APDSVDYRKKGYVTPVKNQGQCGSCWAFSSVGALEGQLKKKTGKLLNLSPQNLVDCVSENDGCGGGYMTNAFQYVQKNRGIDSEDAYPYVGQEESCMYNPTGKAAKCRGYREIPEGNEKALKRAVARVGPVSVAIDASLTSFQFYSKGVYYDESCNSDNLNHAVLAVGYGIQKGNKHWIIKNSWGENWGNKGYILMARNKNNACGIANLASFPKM
- assay-explanation: Protease counter-screening: Cathepsin K

{"columns": ["smiles-data", "IC50"],
 "data": [
  ["CC(C)[C@H](NC(=O)[C@H](C)NC(=O)[C@@H](NC(=O)c1ccccc1)C(C)(C)C)C(=O)C(=O)NCc1ccccc1", "2920 nM"]
]}

---

- test-system: Der p 1 (Dermatophagoides pteronyssinus, UniProt P08176)
- Sequence (P08176 99-320): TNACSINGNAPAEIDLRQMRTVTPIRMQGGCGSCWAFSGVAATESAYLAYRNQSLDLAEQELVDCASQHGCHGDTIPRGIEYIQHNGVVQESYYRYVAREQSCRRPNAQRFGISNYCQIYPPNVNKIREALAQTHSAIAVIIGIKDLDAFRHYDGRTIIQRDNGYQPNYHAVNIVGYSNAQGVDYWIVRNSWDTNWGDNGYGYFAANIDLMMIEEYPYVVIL
- assay-explanation: biochemical
- Type: biochemical
- test-parameters: mean ± SE
Label TRUE when IC50 is strictly below 10 nM; at or above that, label FALSE.

{"columns": ["smiles-data", "assigned-category"],
 "data": [
  ["CC(C)[C@H](NC(=O)[C@H](C)NC(=O)[C@H](Cc1ccccc1)NC(=O)c1ccccc1)C(=O)C(=O)NCc1ccccc1", "FALSE"],
  ["CC(C)[C@H](NC(=O)[C@H](C)NC(=O)[C@@H](NC(=O)c1cccc2ccccc12)C(C)(C)C)C(=O)C(=O)NCc1ccc(S(N)(=O)=O)cc1", "TRUE"],
  ["CC(C)[C@H](NC(=O)[C@H](C)NC(=O)[C@@H](NC(=O)c1ccccc1)C(C)(C)c1ccccc1)C(=O)C(=O)NCc1ccccc1", "FALSE"],
  ["CC(C)[C@H](NC(=O)[C@H](C)NC(=O)[C@@H](N1Cc2ccccc2C1=O)C(C)(C)C)C(=O)C(=O)NCc1ccccc1", "TRUE"],
  ["CC(C)[C@H](NC(=O)[C@H](C)NC(=O)[C@H](Cc1ccccc1)NC(=O)c1ccccc1)C(=O)C(=O)NCC(=O)N1CCOCC1", "TRUE"]
]}

---

- test-system: Der p 1 (Dermatophagoides pteronyssinus, UniProt P08176)
- assay-explanation: biochemical
- Format: biochemical

{"columns": ["compound", "IC50 (nM)"],
 "data": [
  ["CC(C)[C@H](NC(=O)[C@H](C)NC(=O)[C@@H](NC(=O)c1ccccc1)C(C)(C)C)C(=O)C(=O)NCc1cn[nH]c1", 11],
  ["CC(C)[C@H](NC(=O)[C@H](C)NC(=O)[C@H](Cc1ccccc1)NC(=O)c1ccccc1)C(=O)C(=O)NCC(=O)N1CCCCC1", 14],
  ["CC(C)[C@H](NC(=O)[C@H](C)NC(=O)[C@@H](NC(=O)c1ccccc1)C(C)(C)C)C(=O)C(N)=O", 6],
  ["CC(C)[C@H](NC(=O)[C@H](C)NC(=O)[C@@H](NC(=O)c1ccccc1)C(C)(C)C)C(=O)C(=O)NCC(=O)N1CCc2ccccc2C1", 6],
  ["Cc1n[nH]c(C)c1C(=O)N[C@H](C(=O)N[C@@H](C)C(=O)NC(C(=O)C(=O)NCc1ccccc1)C(C)C)C(C)(C)C (mixture of isomers)", 67]
]}

---

- test-system: recombinant human Cat S (Homo sapiens, UniProt P25774)
- Sequence (P25774 115-331): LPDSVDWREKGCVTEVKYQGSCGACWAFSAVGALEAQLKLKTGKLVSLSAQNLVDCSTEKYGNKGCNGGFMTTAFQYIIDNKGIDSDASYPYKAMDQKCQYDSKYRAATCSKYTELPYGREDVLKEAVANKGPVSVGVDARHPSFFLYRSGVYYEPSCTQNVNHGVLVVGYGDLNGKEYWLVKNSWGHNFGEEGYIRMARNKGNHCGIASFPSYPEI
- assay-explanation: Cathepsin S inhibition assay
- Format: biochemical
- test-parameters: Table S1 counter-screening; read-out: Cathepsin S IC50
measured-property: IC50 (µM)

{"columns": ["compound", "measured-property", "measured-number"],
 "data": [
  ["CC(C)[C@H](NC(=O)[C@H](C)NC(=O)[C@@H](NC(=O)c1ccccc1)C(C)(C)C)C(=O)C(=O)NCc1ccccc1 [Compound 38]", "IC50", 0.17]
]}

---

- assay-explanation: Measurement of LogD7.4 (n-octanol/PBS shake)
- Format: physicochemical
- test-parameters: single determination, n-octanol/PBS pH 7.4; read-out: Log D7.4
Label Yes when logD at 1.5 h is strictly below 3; at or above that, label No.

{"columns": ["compound", "assigned-category"],
 "data": [
  ["CC(C)[C@H](NC(=O)[C@H](C)NC(=O)[C@H](Cc1ccccc1)NC(=O)c1ccccc1)C(=O)C(=O)NCC(=O)N1CCCCC1 [Compound 46]", "Yes"],
  ["CC(C)[C@H](NC(=O)[C@H](C)NC(=O)[C@@H](NC(=O)c1ccccc1)C(C)(C)C)C(=O)C(=O)NC1CCCCC1 [Compound 22]", "No"],
  ["CC(C)[C@H](NC(=O)[C@H](C)NC(=O)[C@@H](NC(=O)c1ccccc1)C(C)(C)C)C(=O)C(N)=O [Compound 36]", "Yes"],
  ["CC(C)[C@H](NC(=O)[C@H](C)NC(=O)[C@H](Cc1ccccc1)NC(=O)c1cccc2ccccc12)C(=O)C(=O)NCC(=O)N1CCN(C)CC1 [Compound 53]", "Yes"],
  ["CC(C)[C@H](NC(=O)[C@H](C)NC(=O)[C@@H](NC(=O)c1ccccc1)C(C)(C)C)C(=O)C(=O)NCC(=O)N1CCc2ccccc2C1 [Compound 51]", "No"],
  ["CC(C)[C@H](NC(=O)[C@H](C)NC(=O)[C@H](Cc1ccccc1)NC(=O)c1ccccc1)C(=O)C(=O)NCC(=O)N1CCN(C(C)C)CC1 [Compound 49]", "Yes"],
  ["CC(C)[C@H](NC(=O)[C@H](C)NC(=O)[C@@H](NC(=O)c1ccncc1)C(C)(C)C)C(=O)C(=O)NC1CCCCC1 [Compound 29]", "Yes"],
  ["CC(C)[C@H](NC(=O)[C@H](C)NC(=O)[C@@H](N1Cc2ccccc2C1=O)C(C)(C)C)C(=O)C(=O)NCc1ccccc1 [Compound 28]", "No"],
  ["CC(C)[C@H](NC(=O)[C@H](C)NC(=O)[C@@H](NC(=O)c1ccnc2ccccc12)C(C)(C)C)C(=O)C(=O)NCc1ccccc1 [Compound 27]", "No"],
  ["CC(C)[C@H](NC(=O)[C@H](C)NC(=O)[C@@H](NC(=O)c1ccccc1)C(C)(C)C)C(=O)C(=O)NCC(=O)N1CCN(C)CC1 [Compound 48]", "Yes"],
  ["CC(C)[C@H](NC(=O)[C@H](C)NC(=O)[C@@H](NC(=O)c1ccccc1)C(C)(C)C)C(=O)C(=O)NC1CC1 [Compound 35]", "Yes"],
  ["CC(C)[C@H](NC(=O)[C@H](C)NC(=O)[C@H](Cc1ccccc1)NC(=O)c1ccccc1)C(=O)C(=O)NCC(=O)N1CCOCC1 [Compound 47]", "Yes"],
  ["CC(C)[C@H](NC(=O)[C@H](C)NC(=O)[C@H](Cc1ccccc1)NC(=O)c1ccccc1)C(=O)C(=O)NCC(=O)N1CC[N+](C)(C)CC1.O=C[O-] [Compound 52]", "Yes"]
]}

---

- test-system: human liver Cat B (Homo sapiens, UniProt P07858)
- assay-explanation: Cathepsin B inhibition assay
- test-parameters: read-out: Cat B IC50; mean ± SE
# IC50 per entry
measured-property: IC50 (nM)

{"columns": ["smiles-data", "measured-property", "unit-label", "measured-number"],
 "data": [
  ["CC(C)[C@H](NC(=O)[C@H](C)NC(=O)[C@H](Cc1ccccc1)NC(=O)c1ccccc1)C(=O)C(=O)NCC(=O)N1CCOCC1", "IC50", "nM", 88],
  ["CC(C)[C@H](NC(=O)[C@H](C)NC(=O)[C@@H](NC(=O)c1ccncc1)C(C)(C)C)C(=O)C(=O)NC1CCCCC1", "IC50", "nM", 231],
  ["CC(C)[C@H](NC(=O)[C@H](C)NC(=O)[C@@H](NC(=O)c1ccccc1)C(C)(C)C)C(=O)C(=O)NCc1cn[nH]c1", "IC50", "nM", 367]
]}
